# System: ragweed (common ragweed, Ambrosia elatior)
# Experiment notes: Test A preemergence
# Format: in vivo
# Condition: Ambrosia artemisiifolia, pre-emergence, 240 h, 500 g ai/ha, Preemergence, visual injury vs untreated controls after approximately 10 d; read-out: Ragweed plant response rating (0 to 100 scale where 0 is no effect and 100 is complete control)
Attribute measured: pest or weed control at 500 g/ha (%)
Answer format: numeric, % implied, no suffix.

Example entries begin here.
{"columns": ["Chem smiles", "Value observed"],
 "data": [
  ["CN1CC[C@H](c2cccc(Cl)c2)[C@@H](C(=O)Nc2cccc(F)c2F)C1=O", 0],
  ["Cc1cc(F)cc([C@H]2CNC(=O)[C@@H]2C(=O)Nc2ccc(F)c(F)c2F)c1", 30],
  ["CSc1ccccc1NC(=O)[C@H]1C(=O)N(C)C[C@@H]1c1cc(F)c(F)c(F)c1", 30]
]}

So the reported pest or weed control at 500 g/ha for COc1ccc([C@H]2CN(C)C(=O)[C@@H]2C(=O)Nc2cccc(F)c2F)cc1OC , on ragweed (common ragweed, Ambrosia elatior), turned out to be 20

* * *

# Tested on: giant foxtail (Setaria faberii)
# Experiment notes: Test A preemergence
# Type: in vivo
# Condition: Setaria faberi, pre-emergence, 240 h, 31 g ai/ha, Preemergence; 0 to 100 scale where 0 is no effect and 100 is complete control; read-out: Foxtail, Giant plant response rating
Attribute measured: pest or weed control at 31 g/ha (%)
Answer format: numeric, % implied, no suffix.

Example entries begin here.
{"columns": ["Compound", "Display unit", "Value observed"],
 "data": [
  ["CN1C[C@H](c2ccc(Cl)cc2)[C@@H](C(=O)Nc2ccc(F)c(F)c2F)C1=O [Compound 1144]", "%", 90],
  ["Cc1ccc([C@H]2CN(C)C(=O)[C@@H]2C(=O)Nc2ccccc2)cc1 [Compound 1291]", "%", 100],
  ["CC(C)Oc1ccc([C@H]2CN(C)C(=O)[C@@H]2C(=O)Nc2ccccc2F)cc1F [Compound 1333]", "%", 90]
]}

Record summary for COc1ccc(C(F)(F)F)cc1[C@H]1CN(C)C(=O)[C@@H]1C(=O)Nc1cccc(F)c1F [Compound 1184] : reported pest or weed control at 31 g/ha = 80

Record summary for Cc1cccc([C@H]2CN(C)C(=O)[C@@H]2C(=O)Nc2cnccc2C)c1 [Compound 1344] : reported pest or weed control at 31 g/ha = 0

Record summary for CN1C[C@H](c2cc(Cl)cc(Cl)c2)[C@@H](C(=O)Nc2cccc(F)c2F)C1=O [Compound 1270] : reported pest or weed control at 31 g/ha = 90

Record summary for CN1C[C@H](c2csc3c2CCOC3)[C@@H](C(=O)Nc2ccccc2F)C1=O [Compound 1267] : reported pest or weed control at 31 g/ha = 90

Record summary for CN1C[C@H](c2cc(C(F)F)cs2)[C@@H](C(=O)Nc2cccc(F)c2C#N)C1=O [Compound 1092] : reported pest or weed control at 31 g/ha = 90

* * *

Quick reference for pest or weed control at 250 g/ha among some compounds
# Tested on: ivy-leaved morning glory (Ipomoea hederacea)
# Experiment notes: Test G Pre-Emergence Protocol
# Format: in vivo
# Condition: Ipomoea, pre-emergence, 312 h, 250 g ai/ha, evaluated after 13 days, read-out: Morningglory, Ivy-leaved damage rating (100=total damage to plant; 0=no damage to plant)
Answer format: numeric, % implied, no suffix.

{"columns": ["Compound", "pest or weed control at 250 g/ha [%]"],
 "data": [
  ["Cc1c(F)ccc(NC(=O)[C@@H]2C(=O)N(C)C[C@H]2c2ccc(C(F)(F)F)cc2)c1Cl (racemic)", 0]
]}

Record summary for CN1C[C@@H](c2ccc(C(F)(F)F)cc2)[C@H](C(=O)Nc2cc(C(F)(F)F)[nH]n2)C1=O (racemic) : reported pest or weed control at 250 g/ha = 0

Record summary for CSc1ccccc1NC(=O)[C@@H]1C(=O)N(C)C[C@H]1c1ccc(C(F)(F)F)nc1 (racemic) : reported pest or weed control at 250 g/ha = 10

Record summary for CN1C[C@H](c2ccc(C(F)(F)F)cc2)[C@@H](C(=O)Nc2cccc(C(F)F)c2)C1=O (racemic) : reported pest or weed control at 250 g/ha = 0

The values you see were collected from patent US12077503B2.
